system: SNB-75 CNS; assay: NCI-60 one-dose screen, 48 h (100 = growth as untreated, 0 = no growth, -100 = all killed); conditions: 10 µM unless noted
The panel holds about 83,000 compounds, 20% with a hit somewhere; the sample as a whole holds those more often.
Below is a list of entries, each paired with its recorded growth value.
readout type: growth (%)

- COc1ccc(C(=O)C[C@]2(O)C(=O)Nc3c(Cl)ccc(Cl)c32)cc1: -39.5
- CNc1ccc(Nc2cccc(C)c2)c2c1C(=O)c1ccccc1C2=O: 96.3
- O=C(O)c1cn(C2CC2)c2cc(N3CCN(C(=O)Nc4nc(-c5ccc(Cl)cc5)cs4)CC3)c(F)cc2c1=O: 9.36
- CC1=C([Se]CC(OC(=O)[C@@H](CSSC(C)(C)C)NC(=O)OC(C)(C)C)C(=O)NC(C)(C)C)C(=O)c2ccccc2C1=O (stereo partly specified): -95.8
- COc1ccc(CN2c3ccccc3Sc3ccccc32)c(F)c1: -5.99
- COc1cc(CCC[P+](c2ccccc2)(c2ccccc2)c2ccccc2)c(OC)c2c1OCO2: 3.69
- O=C(O)c1cn(C2CC2)c2cc(N3CCN(C(=O)Nc4nc(-c5ccccc5)cs4)CC3)c(F)cc2c1=O: 9.5
- CCOC(=O)Cn1c(=O)c2c(c3ccccc3n2C)n2nnc(-c3ccccc3)c12: 94.2
- CCCCCCCCCCCCCCCCCCOc1ccc(CC(=O)OCC[N+](C)(C)C)cc1: 113
- CCCCCCN(CCCCCC)c1ccc(/C=C2/SC(=O)NC2=O)c(C)c1: 78.8
- O=C(/C=C/c1sc(Cl)nc1Cl)c1ccc(F)cc1: 92.5
- c1ccc2c(-c3nc(-c4c[nH]c5ccncc45)cs3)c[nH]c2c1: 57.6
- COc1nc2ccc(C)cc2cc1-c1nc2c(cnn2-c2ccc(Br)cc2)c(=O)[nH]1: 25.9
- COc1ccc(S(=O)(=O)n2cc(C3OC(c4cc(OC)c(OC)c(OC)c4)=NN3C(C)=O)c3ccccc32)cc1OC (stereo unspecified): 86
- O=C1CCC(C(=O)NCCNCCNC(=O)C2CCC(=O)N2)N1 (stereo unspecified): 101
- CCCCN(C)N=Nc1ccc(C(N)=O)cc1: 97.3
- CN(C)c1ccc(/C=N\Nc2cc(=O)[nH]c3ccc(Cl)cc23)cc1: 78.4
- Cc1ccc2c(n1)C(=O)C(Cl)=C(Nc1ccccc1C(C)C)C2=O: 85.7
- O=C(S)CNC(=O)c1ccccc1: 96.3
- S=c1nc(-c2ccccc2)oc(=NC2CCCCC2)n1C1CCCCC1: 68.2
- CN1CCN(c2ccc(-c3ccc4ncc(C#N)c(Nc5ccc(F)c(Cl)c5)c4c3)cn2)CC1: 64.1

---

test system: DU-145 prostate; assay: NCI-60 one-dose screen, 48 h (100 = growth as untreated, 0 = no growth, -100 = all killed); conditions: 10 µM unless noted
This is part of a sample that, as a whole, favours compounds with a hit. Of some 83,000 tested, about 20% had one in any assay. Active and inactive are the calls of the source. Rule for the calls: active = growth percent below 10; inactive = the rest.
readout type: growth

- COc1ccc(C(=O)COC(=O)[C@H](C[Se][Se]C[C@H](NC(=O)c2ccc(Br)cc2F)C(=O)OCC(=O)c2ccc(OC)cc2)NC(=O)c2ccc(Br)cc2F)cc1: -70.6% (active)
- COc1ccc(/C=C(/C#N)n2nnc3cccc(F)c32)cc1: -10.7% (active)
- Cc1c(C(=O)NCCCc2ccccc2)sc2ncc(-c3ccc(Br)cc3)n12: 104% (inactive)
- COc1ccc2c(c1)/C(=C/c1sc(=S)n(Cc3ccco3)c1O)C=N2: 33.5% (inactive)
- Oc1ccc(C#CCOc2ccccc2)cc1CNCCN(Cc1ccccn1)Cc1ccccn1: 28.6% (inactive)
- NCCCNc1nc2ccccc2c2c(=O)c3cc(OC(F)(F)F)ccc3sc12: -10.7% (active)
- CCOC(=O)c1nc(Nc2ccc(C(C)=O)cc2)sc1C: 107% (inactive)
- OC(c1ccccc1)C(NC(Cc1ccccc1)c1ccccc1)c1ccccc1 (stereo not drawn): 98.7% (inactive)
- Nc1ccccc1-c1cc2c(c3c1[nH]c1ccccc13)CCCCC2: 102% (inactive)
- CC(C)c1cc(C(C)C)c(S(=O)(=O)Oc2ccc(NC(=O)c3ccc(Cl)cc3)cc2)c(C(C)C)c1: 43.7% (inactive)
- COc1cc2oc(-c3ccc(O)cc3)cc(=O)c2c(O)c1-c1c(OC)cc(O)c2c(=O)cc(-c3ccc(O)cc3)oc12: 53.5% (inactive)
- Cc1ccc2c(n1)C(=O)C(Cl)=C(Nc1ccccc1C(C)C)C2=O: 63.2% (inactive)
- CCc1nnc(NC(=O)c2nnn(-c3ccccc3)c2-c2ccco2)s1: 101% (inactive)
- CCOC(=O)c1cn2ncnc(Oc3ccc(NC(=O)NCCN(C)C)c(Cl)c3)c2c1C: 86.8% (inactive)
- O=C1CN(CCN2CC(=O)N(Cc3ccccc3)C(=O)C2)CC(=O)N1Cc1ccccc1: 117% (inactive)
- COc1ccc(C2C(N)=NNC2c2cccc(O)c2)cc1 (stereo not drawn): 125% (inactive)
- CCCCn1c(=O)c(-c2cc(-c3ccc(Cl)cc3)nc(-c3ccc(Cl)cc3)c2)cc2ccc(Cl)cc21: 108% (inactive)
- O=C1NC(=O)C(Cn2cnc3ccccc32)N1 (stereo not drawn): 110% (inactive)
- COc1ccc2c(c1)c(-c1ccc(-c3cn(C)c4ccc(OC)cc34)o1)cn2C: 107% (inactive)
- CCN(CC)CCCNc1nc2ccccc2c2c(=O)c3cc(Cl)ccc3sc12: 54.4% (inactive)
- CCc1ccc2nc(NC(=O)Cc3csc(NC(=O)c4ccco4)n3)sc2c1: 67% (inactive)
- O=[N+]([O-])c1ccc(Oc2nc(Nc3ccc(O[C@H]4CO[C@H]5[C@@H]4OC[C@@H]5O)c(Cl)c3)ncc2F)c(Cl)c1: 27.3% (inactive)
- COc1c(B(O)O)cc(F)cc1-c1nc2ccc3[nH]ncc3c2c2c1CCCC2: 11.1% (inactive)
